// values below are reported koff
- TARGET: T1, recombinant human TGFβ2 (human, UniProt P61812 303-414)
- T1 construct: mature; also called TGFbeta2; rhTGFβ2
- T1 sequence (looked up): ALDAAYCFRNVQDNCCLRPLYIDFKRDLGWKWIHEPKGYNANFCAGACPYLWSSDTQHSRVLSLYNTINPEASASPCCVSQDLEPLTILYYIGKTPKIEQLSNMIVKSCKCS
- ASSAY_METHOD_TEXT: BIACore, scFv
The reply should be a number in s⁻¹, with the unit left off.

>>> value_reported("6A5 scFv (scFv, also called 6A5 single chain Fv) scFv: EVQLVESGGGVVQPGRSLRLSCAASGFTFSSYGMHWVRQAPGKGLEWVAVIWYDGSNKYYADSVKGRFTISRDNSKNTLYLQMDSLRAEDTAVYYCGRTLESSLWGQGTLVTVSSGGGGSGGGGSGGGGSSSELTQDPAVSVALGQTVRITCQGDSLRSYYASWYQQKPGQAPVLVIYGKNNRPSGIPDRFAGSNSGNTASLTITGAQAEDEADYYCSSRDSSGNHVVFGGGTKLTVLG")
0.00014
>>> value_reported("6B1 scFv (scFv, also called 6B1 single chain Fv) scFv: EVQLVESGGGVVQPGRSLRLSCAASGFTFSSYGMHWVRQAPGKGLEWVAVIWYDGSNKYYADSVKGRFTISRDNSKNTLYLQMDSLRAEDTAVYYCGRTLESSLWGQGTLVTVSSGGGGSGGGGSGGGGSSSELTQDPAVSVALGQTVRITCQGDSLRSYYASWYQQKPGQAPVLVIYGKNNRPSGIPDRFSGSSSGNTASLTITGAQAEDEADYYCNSRDSSSTHRGVFGGGTKLTVLG")
0.0006
>>> value_reported("6H1 scFv (scFv) scFv: EVQLVESGGGVVQPGRSLRLSCAASGFTFSSYGMHWVRQAPGKGLEWVAVIWYDGSNKYYADSVKGRFTISRDNSKNTLYLQMDSLRAEDTAVYYCGRTLESSLWGQGTLVTVSSGGGGSGGGGSGGGGSDVVMTQSPSSLSASVGDRVTITCRASQGISNYLAWYQQKPGKAPKLLIYKASTLESGVPSRFSGSGSGTEFTLTISSLQPEDFATYYCQQSYSTPRTFGQGTKVDIKR")
0.0011

Exam item: Please look up its koff: 14F12 scFv (scFv) scFv: EIQLVESGGGVVQPGRSLRLSCAASGFTFSSYAMHWVRQAPAKGLEWVAVISYDGSNKYYADSVKGRFTISRDNSKNTLYLQMNSLRAEDTAVYYCARAGLETTWGQGTLVTVSSSGGGGGSGGGGSGGGGSSSELTQDPAVSVALGQTVRITCQGDSLRNYYANWYQQKPGQAPVLVIYGKNNRPSGIPDRFSGSSSGNTASLTITGARAEDEGVYYCNSRDSSGAVFGGGTKLTVLG
Marked response: 0.0021
